experimental_system: Prostaglandin G/H synthase 2 (Ovis aries, UniProt P79208)
Sequence (P79208 whole entry): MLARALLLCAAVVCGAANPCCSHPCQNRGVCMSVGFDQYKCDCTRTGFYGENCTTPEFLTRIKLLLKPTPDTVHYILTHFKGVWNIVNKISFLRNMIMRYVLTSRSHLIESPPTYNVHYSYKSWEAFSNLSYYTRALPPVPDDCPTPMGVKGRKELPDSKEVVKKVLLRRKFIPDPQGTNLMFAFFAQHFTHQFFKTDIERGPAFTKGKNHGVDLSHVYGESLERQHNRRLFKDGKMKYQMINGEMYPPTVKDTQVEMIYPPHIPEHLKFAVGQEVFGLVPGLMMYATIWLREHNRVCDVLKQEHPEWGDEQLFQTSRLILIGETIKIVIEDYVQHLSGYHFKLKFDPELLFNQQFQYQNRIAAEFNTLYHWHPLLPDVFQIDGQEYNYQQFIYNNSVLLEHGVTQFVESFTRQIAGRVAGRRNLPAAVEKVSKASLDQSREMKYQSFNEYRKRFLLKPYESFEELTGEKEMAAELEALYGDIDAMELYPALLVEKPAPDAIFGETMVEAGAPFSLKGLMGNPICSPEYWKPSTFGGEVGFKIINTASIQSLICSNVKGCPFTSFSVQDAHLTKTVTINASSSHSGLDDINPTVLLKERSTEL
quantity_name: IC50 (nM)
Give a bare numeral; the unit nM is implied.

Worked set:
- O=C1OC(c2cccnc2)=N/C1=C/c1ccc(O)cc1: 24
- O=C1NN(c2ccccc2)C(c2cccnc2)=N/C1=C/c1ccccc1O: 17
- CN(C)c1ccc(/C=C2/N=C(c3cccnc3)OC2=O)cc1: 19
- COc1ccc(/C=C2/N=C(c3cccnc3)OC2=O)cc1: 59
- O=C1OC(c2cccnc2)=N/C1=C\c1cccnc1: 75
- O=C1NN(c2ccccc2)C(c2cccnc2)=N/C1=C/c1ccc(Cl)cc1: 34
- O=C1OC(c2cccnc2)=N/C1=C\c1ccccc1O: 85
- O=C1OC(c2cccnc2)=N/C1=C/c1ccc(Cl)cc1: 106

Attention now turns to another entry.
What does the data say about its IC50? Entry: O=C1OC(c2cccnc2)=N/C1=C\c1ccccc1
77
